method notes: anti-Giardia activity of synthetic compounds – Compounds Australia Scaffold Library subset, 24/48 h, primary screen (AID 1794835)
reported conditions: Giardia lamblia BRIS/91/HEPU/1279 trophozoite counts, imaging, at 10 µM
Among all 2,500 compounds or so, about 45 (2%) were called active. Rule as the data show it: active = inhibition mostly above about 45% (no sharp cut-off); inactive = mostly below about 37%. This excerpt belongs to a sample that is enriched for actives.
Parameter call: string, one of active, inactive

Ask | Would you mind telling me which call this test gave O=C(Nc1ccccc1)c1cc(-c2cccs2)n(C2CCS(=O)(=O)C2)n1 (centres undefined) ?
Reply | inactive

Ask | Would you mind telling me which call this test gave COc1ccc2oc(-c3noc(C(NC(=O)c4ccco4)C(C)C)n3)c(C)c2c1 (centres undefined) ?
Reply | inactive

Ask | Would you mind telling me which call this test gave CCOc1ccc(CCNC(=O)c2ccc3c(c2)nc2n3CCOC2)cc1OCC ?
Reply | active

Ask | Would you mind telling me which call this test gave Cc1ncc([N+](=O)[O-])n1Cc1csc(Cc2ccccc2)n1 ?
Reply | active

Ask | Would you mind telling me which call this test gave O=C(NC1CCCCC1)c1cc(-c2ccco2)nc2ccccc12 ?
Reply | inactive

Ask | Would you mind telling me which call this test gave O=C(NC1CCCCC1)c1nc(Nc2ccccc2)c2ccccc2n1 ?
Reply | active

Ask | Would you mind telling me which call this test gave COCC(=O)N1CCC(Oc2ncccc2C(=O)N(C)C)CC1 ?
Reply | inactive

Ask | Would you mind telling me which call this test gave CN1CCN(CCNC(=O)CN2C(=O)C3CCCCN3c3ccc(C(=O)N4CCCC4)cc32)CC1 (centres undefined) ?
Reply | inactive

Ask | Would you mind telling me which call this test gave CCCNC1=C(C(=O)Nc2ccc(F)cc2)S(=O)(=O)c2ccccc21 ?
Reply | inactive

Ask | Would you mind telling me which call this test gave Cn1nccc1-c1cccc(-c2noc(-c3cccc(F)c3)n2)c1 ?
Reply | active

Ask | Would you mind telling me which call this test gave Cc1cc2[nH]c(C(=O)Nc3ccccc3C)c(CN3CCOCC3)c2s1 ?
Reply | active

Ask | Would you mind telling me which call this test gave COc1cc(NS(=O)(=O)c2ccc(C)cc2)cc2sc(NC(=O)c3ccccc3)nc12 ?
Reply | active

Ask | Would you mind telling me which call this test gave COc1ccc(C)cc1N1C(=N)C(=C2Nc3ccccc3S2)C(c2ccccc2)C1=O (centres undefined) ?
Reply | active

Ask | Would you mind telling me which call this test gave CN1CCN(CC2CCN(C(=O)Cc3cccc4ccccc34)CC2)CC1 ?
Reply | inactive
